system: MOLT-4 cells; test: CellTiter-Glo assay, MOLT-4; format: cell-based; settings: Homo sapiens; MOLT-4 acute lympho, 72 hr; read-out: IC50 (50% Inhibition of Proliferation)
readout_label: pIC50
Numbers only, as −log10 of the molar value.

CN1CCN(C(=O)C2C(C(=O)O)[C@H]3CC[C@@H]2O3)CC1 (some centres unmarked) [Compound 100, Endothall 4-Methylpiperazine Monoamide]    5.24

Asked: Please report the recorded pIC50 for CC(C)(C)OC(=O)N1CCN(C(=O)C2C(C(=O)O)[C@H]3CC[C@@H]2O3)CC1 (stereo in doubt) .
Given back: 5.25

---

Tested on: PANC-1 cells
Experiment: CellTiter-Glo assay, PANC-1
Assay type: cell-based
Conditions: Homo sapiens; PANC-1 Pancreas, 72 hr; read-out: IC50 (50% Inhibition of Proliferation)
Protocol: MDA-MB-231, HT-29, NCI-H460, NCI-H522, NCI-H69, GXF-209, HepG2, OVAR-3, PANC-1, DU-145, LNCAP, HL-60, K-562, and MOLT-4 cell lines were either obtained from the American Type Culture Collection (ATCC; Manassas, Va.), or from the National Cancer Institute (NCI; Frederick, Md.). […] Briefly, plates were removed from the incubator and placed on the bench at room temperatures for 30 minutes. […] Luminescence was then recorded using the PerkinElmer Microbeta scintillation and luminescence counter (Trilux).
Exercise: for every item that follows, state its recorded IC50.
Numbers only, in µM.

CN1CCN(C(=O)C2C(C(=O)O)[C@H]3CC[C@@H]2O3)CC1 (some centres unmarked) [Compound 100, Endothall 4-Methylpiperazine Monoamide]    25.1

// switching to the query compound
Asked: I'm curious: which IC50 was measured for CC(C)(C)OC(=O)N1CCN(C(=O)C2C(C(=O)O)[C@H]3CC[C@@H]2O3)CC1 (stereo in doubt) tested on PANC-1 cells?
Given back: 20.7

---

Assignment: determine reported melting point for the given compounds.

Dear colleague, could you send me melting point for each of the items below? Thanks.
1. O=C(O)C1C(C(=O)N2CCNCC2)[C@@H]2CC[C@H]1O2 (stereo in doubt)
2. COc1ccc(CCN2CCC(NC(=O)C3C(C(=O)O)[C@H]4CC[C@@H]3O4)CC2)cc1 (stereo in doubt)
3. CN(C)CCNC(=O)C1C(C(=O)O)[C@H]2CC[C@@H]1O2 (some centres unmarked)

Given back:
["> 240 °C (dec.)", "140 to 142 °C", "48 to 50 °C"]

Each compound below has a recorded value; state its melting point.
1. O=C(O)C1C(C(=O)N2CCN(Cc3ccccc3)CC2)[C@@H]2CC[C@H]1O2 (stereo in doubt)
2. COC(=O)C1C(C(=O)N2CCN(C)CC2)[C@@H]2CC[C@H]1O2 (some centres unmarked)

Given back:
> 190 °C (dec.)
105 to 107 °C
